- target under test: Itk (Homo sapiens)
- assay notes: ITK inhibition assay, radioactive-phosphate incorporation
- Type: biochemical
- experimental setup: [γ-33P]ATP, SAM68 peptide, 25° C.
pKi: −log10 of the molar value.
Reported pKi values for a set of compounds

Solved cases (7 shown):
>  <smiles structure>
CNc1cc(-c2c[nH]c(=O)c(NC(=O)c3ccc(OCC4CCNCC4)cc3)c2)ncn1

>  <target under test>
Itk (Homo sapiens)

>  <pKi>
> 7.00

$$$$
>  <smiles structure>
CNc1cncc(-c2c[nH]c(=O)c(NC(=O)c3ccc(OCCCN4CCCCC4)cc3)c2)n1

>  <target under test>
Itk (Homo sapiens)

>  <pKi>
> 7.00

$$$$
>  <smiles structure>
O=C(Nc1cc(-c2ccccn2)c[nH]c1=O)c1ccc(N2CCCCC2)cc1

>  <target under test>
Itk (Homo sapiens)

>  <pKi>
6.00 to 7.00

$$$$
>  <smiles structure>
CCNc1nccc(-c2c[nH]c(=O)c(NC(=O)c3ccc(C(C)(C)C)cc3)c2)n1

>  <target under test>
Itk (Homo sapiens)

>  <pKi>
> 7.00

$$$$
>  <smiles structure>
O=C(Nc1cc(-c2ccncc2)c[nH]c1=O)c1ccc(N2CCC(O)CC2)cc1

>  <target under test>
Itk (Homo sapiens)

>  <pKi>
6.00 to 7.00

$$$$
>  <smiles structure>
CCN1CCN(c2ccc(NC(=O)c3cc(-c4ccncc4)c[nH]c3=O)cc2)CC1

>  <target under test>
Itk (Homo sapiens)

>  <pKi>
> 7.00

$$$$
>  <smiles structure>
CC(C)(C)c1ccc(NC(=O)c2cc(-c3ccncc3)c[nH]c2=O)cc1

>  <target under test>
Itk (Homo sapiens)

>  <pKi>
6.00 to 7.00

$$$$

Give its pKi value. Item: CC(C)Nc1nccc(-c2c[nH]c(=O)c(NC(=O)c3ccc(C(C)(C)C)cc3)c2)n1
> 7.00

---

- target under test: Rlk (Homo sapiens)
- Sequence (P42681 1-527): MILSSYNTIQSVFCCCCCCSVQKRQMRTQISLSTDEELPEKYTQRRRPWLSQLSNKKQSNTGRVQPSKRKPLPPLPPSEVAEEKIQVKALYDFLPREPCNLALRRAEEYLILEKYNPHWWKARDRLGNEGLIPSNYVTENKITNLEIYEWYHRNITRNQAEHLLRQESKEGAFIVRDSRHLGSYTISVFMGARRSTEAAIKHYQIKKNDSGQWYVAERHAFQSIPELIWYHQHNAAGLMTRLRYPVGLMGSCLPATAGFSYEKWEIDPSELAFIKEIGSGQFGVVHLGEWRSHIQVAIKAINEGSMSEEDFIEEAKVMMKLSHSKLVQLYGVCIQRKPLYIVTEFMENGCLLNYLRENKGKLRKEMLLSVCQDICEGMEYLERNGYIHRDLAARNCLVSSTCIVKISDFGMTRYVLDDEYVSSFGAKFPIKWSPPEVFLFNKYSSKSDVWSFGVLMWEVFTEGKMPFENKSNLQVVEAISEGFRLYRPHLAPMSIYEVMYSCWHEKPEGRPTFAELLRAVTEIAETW
- assay notes: RLK inhibition assay, standard coupled enzyme assay
- experimental setup: 100 μM ATP, 40 nM Rlk, 30° C.
pKi: −log10 of the molar value.
measurement kind: pKi

Solved cases (3 shown):
>  <smiles structure>
CNc1nccc(-c2c[nH]c(=O)c(NC(=O)c3ccc(N4CCNCC4)cc3)c2)n1

>  <pKi>
> 6.00

$$$$
>  <smiles structure>
CNc1nccc(-c2c[nH]c(=O)c(NC(=O)c3ccc(N4CCN(C(C)=O)CC4)cc3)c2)n1

>  <pKi>
> 6.00

$$$$
>  <smiles structure>
O=C(Nc1cc(-c2ccncc2)c[nH]c1=O)c1ccc(N2CCNCC2)cc1

>  <pKi>
< 6.00

$$$$

Please turn your attention to the following entry.
Give its pKi value. Item: CNc1cncc(-c2c[nH]c(=O)c(NC(=O)c3ccc(N4CCC[C@H]4CN4CCCC4)cc3)c2)c1
< 6.00

---

- target under test: Itk (Homo sapiens, UniProt Q08881)
- Sequence (Q08881 1-620): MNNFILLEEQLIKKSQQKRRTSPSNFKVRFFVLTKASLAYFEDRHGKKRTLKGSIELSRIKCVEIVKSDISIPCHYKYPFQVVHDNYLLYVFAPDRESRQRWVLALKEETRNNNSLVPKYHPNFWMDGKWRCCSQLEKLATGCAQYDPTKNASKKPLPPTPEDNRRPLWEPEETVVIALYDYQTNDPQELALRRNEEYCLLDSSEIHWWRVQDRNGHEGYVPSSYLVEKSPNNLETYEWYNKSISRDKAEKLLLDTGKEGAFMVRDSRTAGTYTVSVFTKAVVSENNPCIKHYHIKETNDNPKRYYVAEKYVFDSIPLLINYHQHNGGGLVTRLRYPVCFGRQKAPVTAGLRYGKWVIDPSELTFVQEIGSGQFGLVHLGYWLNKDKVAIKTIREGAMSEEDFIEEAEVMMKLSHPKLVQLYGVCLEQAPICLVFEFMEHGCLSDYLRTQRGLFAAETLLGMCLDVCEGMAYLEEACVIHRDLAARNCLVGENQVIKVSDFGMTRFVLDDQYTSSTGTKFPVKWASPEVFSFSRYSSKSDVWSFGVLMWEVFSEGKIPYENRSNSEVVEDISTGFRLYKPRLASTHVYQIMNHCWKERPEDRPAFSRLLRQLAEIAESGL
- assay notes: ITK inhibition assay, radioactive-phosphate incorporation
- Format: biochemical
- experimental setup: [γ-33P]ATP, SAM68 peptide, 25° C.
measurement kind: Ki

>  <molecule>
CNc1cc(-c2c[nH]c(=O)c(NC(=O)c3ccc(N4CCCCC4)cc3)c2)nc(NC)n1

>  <target under test>
Itk (Homo sapiens, UniProt Q08881)

>  <Ki>
100 to 1000 nM

$$$$
>  <molecule>
O=C(Nc1cc(-c2cccc(CO)n2)c[nH]c1=O)c1ccc(N2CCCCC2)cc1

>  <target under test>
Itk (Homo sapiens, UniProt Q08881)

>  <Ki>
100 to 1000 nM

$$$$
>  <molecule>
CC(C)(C)c1ccc(C(=O)Nc2cc(C3=CC(=O)CCC3)c[nH]c2=O)cc1

>  <target under test>
Itk (Homo sapiens, UniProt Q08881)

>  <Ki>
100 to 1000 nM

$$$$
>  <molecule>
CCOc1nccc(-c2c[nH]c(=O)c(NC(=O)c3ccc(N4CCCCC4)cc3)c2)n1

>  <target under test>
Itk (Homo sapiens, UniProt Q08881)

>  <Ki>
100 to 1000 nM

$$$$
>  <molecule>
CC(C)(C)c1ccc(C(=O)Nc2cc(-c3cc(N[C@@H]4CCNC4)ncn3)c[nH]c2=O)cc1

>  <target under test>
Itk (Homo sapiens, UniProt Q08881)

>  <Ki>
100 to 1000 nM

$$$$

Give its Ki value. Item: N#Cc1cncc(-c2c[nH]c(=O)c(NC(=O)c3ccc(N4CCC[C@H]4CN4CCCC4)cc3)c2)c1
100 to 1000 nM

Give its Ki value. Item: CNc1cncc(-c2c[nH]c(=O)c(NC(=O)c3ccc(N(C)CCc4cnc[nH]4)cc3)c2)n1
< 100 nM

Give its Ki value. Item: CNc1cncc(-c2c[nH]c(=O)c(NC(=O)c3ccc(N4CCC[C@H]4CO)cc3)c2)n1
< 100 nM

Give its Ki value. Item: O=C(Nc1cc(-c2ccncc2)c[nH]c1=O)c1ccc(N2CCNCC2)nc1
100 to 1000 nM

Give its Ki value. Item: O=C(Nc1cc(-c2ccnc(NCCO)n2)c[nH]c1=O)c1ccc(N2CCCCC2)cc1
100 to 1000 nM

Give its Ki value. Item: COc1ccc(NC(=O)c2cc(-c3ccncc3)c[nH]c2=O)cc1
100 to 1000 nM

Give its Ki value. Item: Cn1cncc1-c1c[nH]c(=O)c(NC(=O)c2ccc(N3CCNCC3)cc2)c1
100 to 1000 nM

Give its Ki value. Item: CCN(CC)CCN1CCN(c2ccc(C(=O)Nc3cc(-c4ccncc4)c[nH]c3=O)cc2)CC1
< 100 nM

---

- target under test: Itk (Homo sapiens)
- Sequence (Q08881 1-620): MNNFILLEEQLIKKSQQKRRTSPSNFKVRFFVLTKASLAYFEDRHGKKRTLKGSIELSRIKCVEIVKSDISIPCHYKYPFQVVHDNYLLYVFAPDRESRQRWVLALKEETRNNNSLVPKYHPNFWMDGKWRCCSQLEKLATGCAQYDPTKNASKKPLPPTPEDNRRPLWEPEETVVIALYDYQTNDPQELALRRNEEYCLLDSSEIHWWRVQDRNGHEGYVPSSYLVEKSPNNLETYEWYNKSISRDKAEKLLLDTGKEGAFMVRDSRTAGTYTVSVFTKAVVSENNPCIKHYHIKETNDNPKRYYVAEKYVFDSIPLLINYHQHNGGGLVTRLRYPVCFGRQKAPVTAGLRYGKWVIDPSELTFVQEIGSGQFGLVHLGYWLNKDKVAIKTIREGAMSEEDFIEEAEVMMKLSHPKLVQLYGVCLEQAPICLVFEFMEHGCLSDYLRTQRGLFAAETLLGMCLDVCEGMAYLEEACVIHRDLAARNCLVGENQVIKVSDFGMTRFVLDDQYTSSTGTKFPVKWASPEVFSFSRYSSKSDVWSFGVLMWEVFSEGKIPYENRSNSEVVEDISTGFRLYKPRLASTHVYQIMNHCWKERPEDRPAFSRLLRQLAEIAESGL
- assay notes: ITK inhibition assay, radioactive-phosphate incorporation
- Type: biochemical
- experimental setup: [γ-33P]ATP, SAM68 peptide, 25° C.
Reported Ki values for a set of molecules

Solved cases (5 shown):
>  <smiles structure>
N#Cc1ccnc(-c2c[nH]c(=O)c(NC(=O)c3ccc(N4CCNCC4)cc3)c2)c1

>  <Ki>
100 to 1000 nM

$$$$
>  <smiles structure>
CNc1nccc(-c2c[nH]c(=O)c(NC(=O)c3ccc(N4CCNCC4)cc3)c2)n1

>  <Ki>
< 100 nM

$$$$
>  <smiles structure>
O=C(Nc1cc(-c2ccncc2)c[nH]c1=O)c1ccc(N2CCN(CCOCCO)CC2)cc1

>  <Ki>
< 100 nM

$$$$
>  <smiles structure>
CC(C)[C@@H](CO)Nc1cccc(-c2c[nH]c(=O)c(NC(=O)c3ccc(N4CCCCC4)cc3)c2)n1

>  <Ki>
100 to 1000 nM

$$$$
>  <smiles structure>
CNCCN(C)c1nccc(-c2c[nH]c(=O)c(NC(=O)c3ccc(N4CCCCC4)cc3)c2)n1

>  <Ki>
< 100 nM

$$$$

Give its Ki value. Item: CNc1cncc(-c2c[nH]c(=O)c(NC(=O)c3ccc(OC4CCNCC4)cc3)c2)n1
< 100 nM

Give its Ki value. Item: O=C(Nc1cc(-c2cccc(NCCO)n2)c[nH]c1=O)c1ccc(N2CCCCC2)cc1
100 to 1000 nM

Give its Ki value. Item: CC(C)c1ccc(NC(=O)c2cc(-c3ccncc3)c[nH]c2=O)cc1
100 to 1000 nM
